Values were extracted from paper PMC9853847.

Tested on: mismatch 3 duplex (27-mer, CC mismatch at 24 bp) (DNA, mismatch bulge abasic) GACCAGCTTATCACCCCTAGATACCAT/ATGCTATCTAGGGGTGATAAGCTGGTC
protocolSummary: FRET titration (MLCT donor to Cy5.5-labeled DNA), dose-response fit
runParameters: 200 mM NaCl; 5 mM Tris, pH 7.5; 1 μM DNA
measuredParameter: Kd (µM)
// return numeric value only (unit: µM, not printed)

* Cc1ccc(-c2ccc(C)cn2)nc1.Cc1ccc(-c2ccc(C)cn2)nc1.[Ru+2].c1ccc2nc3c4cccnc4c4ncccc4c3nc2c1 | 5.1
* Cc1ccc(-c2ccc(C)cn2)nc1.[Ru+2].c1ccc(-c2nc3c4cccnc4c4ncccc4c3[nH]2)cc1.c1ccc(-c2nc3c4cccnc4c4ncccc4c3[nH]2)cc1 | 7.6
* Cc1ccc(-c2ccc(C)cn2)nc1.[Ru+2].c1ccc2nc3c4cccnc4c4ncccc4c3nc2c1.c1ccc2nc3c4cccnc4c4ncccc4c3nc2c1 | 8.1

stdin: Entry [Ru+2].c1ccc(-c2ccccn2)nc1.c1ccc(-c2ccccn2)nc1.c1ccc2nc3c4cccnc4c4ncccc4c3nc2c1 has what Kd?
stdout: 6.5

----------
System: 20-mer duplex (DNA, duplex) TGAGGATGTGTAGGTTGATG/CATCAACCTACACATCCTCA
protocolSummary: FRET titration (MLCT donor to Cy5.5-labeled DNA), dose-response fit
runParameters: 200 mM NaCl; 5 mM Tris, pH 7.5; 1 μM DNA
Reported Kd values for the following molecules.

Illustrative cases are given below, each with its answer.
• Cc1ccc(-c2ccc(C)cn2)nc1.[Ru+2].c1ccc(-c2nc3c4cccnc4c4ncccc4c3[nH]2)cc1.c1ccc(-c2nc3c4cccnc4c4ncccc4c3[nH]2)cc1 = 2600 ± 1000 nM
• Cc1ccc(-c2ccc(C)cn2)nc1.[Ru+2].c1ccc2nc3c4cccnc4c4ncccc4c3nc2c1.c1ccc2nc3c4cccnc4c4ncccc4c3nc2c1 = 6300 ± 300 nM
• Cc1ccc(-c2ccc(C)cn2)nc1.Cc1ccc(-c2ccc(C)cn2)nc1.[Ru+2].c1ccc2nc3c4cccnc4c4ncccc4c3nc2c1 = 2300 ± 500 nM

stdin: Short answer please: Kd, 20-mer duplex (DNA, duplex) TGAGGATGTGTAGGTTGATG/CATCAACCTACACATCCTCA, entry [Ru+2].c1ccc(-c2ccccn2)nc1.c1ccc(-c2ccccn2)nc1.c1ccc2nc3c4cccnc4c4ncccc4c3nc2c1
stdout: 2800 ± 900 nM

----------
System: mismatch 1 duplex (27-mer, CC mismatch at 4 bp) (DNA, mismatch bulge abasic) GACCAGCTTATCACCCCTAGATACCAT/ATGGTATCTAGGGGTGATAAGCTCGTC
protocolSummary: FRET titration (MLCT donor to Cy5.5-labeled DNA), dose-response fit
runParameters: 200 mM NaCl; 5 mM Tris, pH 7.5; 1 μM DNA
measuredParameter: Kd (µM)
// return numeric value only (unit: µM, not printed)

• Cc1ccc(-c2ccc(C)cn2)nc1.[Ru+2].c1ccc2nc3c4cccnc4c4ncccc4c3nc2c1.c1ccc2nc3c4cccnc4c4ncccc4c3nc2c1 = 6.4
• Cc1ccc(-c2ccc(C)cn2)nc1.Cc1ccc(-c2ccc(C)cn2)nc1.[Ru+2].c1ccc2nc3c4cccnc4c4ncccc4c3nc2c1 = 4.6
• Cc1ccc(-c2ccc(C)cn2)nc1.[Ru+2].c1ccc(-c2nc3c4cccnc4c4ncccc4c3[nH]2)cc1.c1ccc(-c2nc3c4cccnc4c4ncccc4c3[nH]2)cc1 = 7.3

In the following, a different compound is considered.
stdin: Entry [Ru+2].c1ccc(-c2ccccn2)nc1.c1ccc(-c2ccccn2)nc1.c1ccc2nc3c4cccnc4c4ncccc4c3nc2c1 has what Kd?
stdout: 5.0
